The reported measurements were obtained from patent US20220144922A1.

Target: RSV F protein of subtype A strain A2, on virus (respiratory syncytial virus subtype A …, UniProt P03420 26-574)
Assay: cell-based or functional assay
Below, each entry is listed alongside its reported RSV-A2 IC50.
Hi! Could you send only the number? It should be in µg/mL, unit omitted.

ADI-15665 (antibody, V domains shown) VH: QVQLVQSGPEVKRPGSSVKVSCKASGDTFNNYAISWVRQAPGQGLEWMGGIHPTTATPNYAQKFQGRVVISADKSTSTAYLDLSRLRSEDTAMYYCARVGVGRTWVYDIMGYLDYWGQGTLVTVSS VL: EIVLTQSPATLSLSPGERATLSCRASQSVSDYLAWYQQRPGQAPRLLIYDASTRATGIPDRFSGGGSGTDFTLTISSLEPEDFAVYYCQHRNNWPSLTFGGGTKVEIK: 12.7
ADI-15623 (antibody, V domains shown, IgG; also called Antibody Number 188) VH: EVQLLESGGGLVKPGGSLRLSCAASGFTIGGYNMFWVRQPPGKGLEWVSSITAGSSYLNYADSVKGRFIVSRDNAKNSLYLQMNSLRAEDTAVYFCARAPLLPAMMDLWGQGTTVTVSS VL: QSVVTQPPSVSGAPGQRVTISCTGSSSNIGAGYDVHWYQQLPGTAPKLLIYTNNNRPSGVPDRFSGSKSGTSASLAITGLQAEDEADYYCQSYDRSLNGYVFGTGTQLTVL: 0.05

Now look at this one.
Entry ADI-15614 (antibody, V domains shown, IgG) VH: EVQLLESGGGLVKPGGSLRLSCAASGFTISGYNMFWVRQPPGKGLEWVSSITAGSSYLNYADSVKGRFIVSRDNAKNSLYLQMNSLRAEDTAVYFCARAPLLPAMMDLWGQGTTVTVSS VL: QSVLTQPPSVSGAPGQRVTISCTGSSSNIGAGYDVHWYQQLPGTAPKLLIYTNNNRPSGVPDRFSGSKSGTSASLAITGLQAEDEADYYCQSYDRSLNGYVFGTGTKLTVL has what RSV-A2 IC50? 0.03
